- Run Description: Displacement of [125I]MCH from MCHR1 expressed in CHO cell membranes assessed as inhibition constant
- Design: species or system Cricetulus griseus, Membrane
- Conditions: read-out: Ki
pKi: −log10 of the molar value.
Each entry gets false if its pKi stays under 6, and true if its pKi is 6 or above.

Query block: Item COc1cc(OC)cc(C(=O)NC[C@H]2CCN(Cc3ccc4ccccc4c3)C2)c1 with pKi of 6 or above?
Result block: true

Query block: Form field: pKi at least 6? Entry: O=C(COc1ccc(Cl)cc1)N[C@@H]1CCN(Cc2ccc3ccccc3c2)C1
Result block: true

Query block: Given the entry O=C(c1ccc(F)c(Cl)c1)N1CCC2(CCCN(Cc3ccc4c(c3)OCO4)C2)C1 (stereo unspecified) , answer whether its pKi meets or surpasses 6.
Result block: false

Query block: Hello, I need to know if O=C(N[C@@H]1CCN(Cc2ccc3ccccc3c2)C1)c1ccc(Br)cc1 has measured pKi not below 6. Thanks!
Result block: true

Query block: Test whether the molecule COc1cc(OC)cc(C(=O)N2CCC3(CCCN(Cc4ccc5ccccc5c4)C3)C2)c1 (stereo unspecified) records pKi of 6 or higher.
Result block: true

Query block: hey, is pKi for this one >= 6? COc1cc(OC)cc(C(=O)N[C@@H]2CCN(Cc3ccc4ccccc4c3)C2)c1
Result block: true

Query block: Threshold query (pKi >= 6) on Cc1ccc2c(C)c(C(=O)N[C@@H]3CCN(Cc4ccc5ccccc5c4)C3)oc2c1
Result block: false

Query block: Say whether O=C(N[C@@H]1CCN(Cc2ccc3ccccc3c2)C1)c1ccc(F)c(F)c1 shows pKi of 6 or more.
Result block: true

Query block: Hi, just wondering whether O=C(N[C@@H]1CCN(Cc2ccc3ccccc3c2)C1)c1ccc(Br)s1 shows pKi of 6 or higher.
Result block: true

Query block: Item O=C(N[C@@H]1CCN(Cc2ccc3ccccc3c2)C1)c1ccc(F)c(Cl)c1 with pKi of 6 or above?
Result block: true

Query block: Dear colleague, could you confirm whether O=C(N[C@@H]1CCN(Cc2ccc3ccccc3c2)C1)c1ccc(-c2ccc(F)cc2)cc1 has pKi at or above 6?
Result block: false

Query block: Check the entry O=C(COc1ccc(Cl)cc1)N1CCC2(CCCN(Cc3ccc4c(c3)OCO4)C2)C1 (stereo unspecified) : does pKi equal or exceed 6?
Result block: false

Query block: Would you say O=C(c1ccc(F)c(F)c1)N1CCC2(CCCN(Cc3ccc4ccccc4c3)C2)C1 (stereo unspecified) shows pKi at minimum 6?
Result block: false

Query block: Hi, just wondering whether O=C(COc1ccc(Cl)cc1)N1CCCC12CCCN(Cc1ccc3ccccc3c1)C2 (stereo unspecified) shows pKi of 6 or higher.
Result block: false

Query block: Quick check: does COc1cccc(-c2ccc(C(=O)N[C@@H]3CCN(Cc4ccc5ccccc5c4)C3)cc2)c1 have pKi greater than or equal to 6?
Result block: false

Query block: Kindly determine if pKi recorded for O=C(N[C@@H]1CCN(Cc2ccc3ccccc3c2)C1)c1ccc(-c2ccc(C(F)(F)F)cc2)s1 is above or exactly 6.
Result block: false

Query block: Hi, just wondering whether COc1cc(NC(=O)CC2CCCN(Cc3ccc4ccccc4c3)C2)cc(OC)c1 (stereo unspecified) shows pKi of 6 or higher.
Result block: false

Query block: Reported pKi at or above 6? COc1cc(OC)cc(C(=O)N[C@@H]2CCN(C/C=C/c3ccccc3)C2)c1
Result block: true

Query block: Kindly determine if pKi recorded for O=C(N[C@@H]1CCN(Cc2ccc3ccccc3c2)C1)c1ccccc1 is above or exactly 6.
Result block: true

Query block: Is pKi at least 6? Consider COc1cc(OC)cc(C(=O)N[C@@H]2CCN(Cc3ccc4c(c3)OCO4)C2)c1
Result block: true
